# target: Egalitarian (Egl);Bicaudal D (BicD) (Drosophila melanogaster;Drosophila …, UniProt Q9W1K4;P16568 1-1004;1-782, |)
# Sequence (chain, as listed by the source |, chain 1 of 2): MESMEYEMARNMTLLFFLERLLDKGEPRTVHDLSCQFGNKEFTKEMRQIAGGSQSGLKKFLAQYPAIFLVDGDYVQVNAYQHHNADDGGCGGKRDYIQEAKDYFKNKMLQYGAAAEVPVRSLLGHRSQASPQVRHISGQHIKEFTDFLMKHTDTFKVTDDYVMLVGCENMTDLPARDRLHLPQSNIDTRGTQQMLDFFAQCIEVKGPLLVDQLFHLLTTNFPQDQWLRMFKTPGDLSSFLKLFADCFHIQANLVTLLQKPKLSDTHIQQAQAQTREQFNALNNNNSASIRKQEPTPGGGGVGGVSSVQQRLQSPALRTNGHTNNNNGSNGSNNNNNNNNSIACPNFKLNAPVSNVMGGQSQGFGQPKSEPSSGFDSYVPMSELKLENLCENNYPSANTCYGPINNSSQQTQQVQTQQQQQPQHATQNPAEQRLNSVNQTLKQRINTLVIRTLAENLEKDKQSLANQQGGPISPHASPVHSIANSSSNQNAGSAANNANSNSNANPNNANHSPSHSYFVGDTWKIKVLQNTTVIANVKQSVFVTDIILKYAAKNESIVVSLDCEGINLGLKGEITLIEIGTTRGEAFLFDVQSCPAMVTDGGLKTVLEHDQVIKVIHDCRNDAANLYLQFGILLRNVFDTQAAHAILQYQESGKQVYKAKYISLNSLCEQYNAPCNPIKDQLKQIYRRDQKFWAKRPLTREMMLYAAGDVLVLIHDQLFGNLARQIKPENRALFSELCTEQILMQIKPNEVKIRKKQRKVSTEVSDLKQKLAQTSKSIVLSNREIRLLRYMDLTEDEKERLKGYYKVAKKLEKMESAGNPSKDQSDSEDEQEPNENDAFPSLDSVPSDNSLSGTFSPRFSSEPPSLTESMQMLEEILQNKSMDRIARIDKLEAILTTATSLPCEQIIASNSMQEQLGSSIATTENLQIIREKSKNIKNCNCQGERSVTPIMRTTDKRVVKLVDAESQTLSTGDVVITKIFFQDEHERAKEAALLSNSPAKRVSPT
# Sequence (P16568 whole entry, chain 2 of 2): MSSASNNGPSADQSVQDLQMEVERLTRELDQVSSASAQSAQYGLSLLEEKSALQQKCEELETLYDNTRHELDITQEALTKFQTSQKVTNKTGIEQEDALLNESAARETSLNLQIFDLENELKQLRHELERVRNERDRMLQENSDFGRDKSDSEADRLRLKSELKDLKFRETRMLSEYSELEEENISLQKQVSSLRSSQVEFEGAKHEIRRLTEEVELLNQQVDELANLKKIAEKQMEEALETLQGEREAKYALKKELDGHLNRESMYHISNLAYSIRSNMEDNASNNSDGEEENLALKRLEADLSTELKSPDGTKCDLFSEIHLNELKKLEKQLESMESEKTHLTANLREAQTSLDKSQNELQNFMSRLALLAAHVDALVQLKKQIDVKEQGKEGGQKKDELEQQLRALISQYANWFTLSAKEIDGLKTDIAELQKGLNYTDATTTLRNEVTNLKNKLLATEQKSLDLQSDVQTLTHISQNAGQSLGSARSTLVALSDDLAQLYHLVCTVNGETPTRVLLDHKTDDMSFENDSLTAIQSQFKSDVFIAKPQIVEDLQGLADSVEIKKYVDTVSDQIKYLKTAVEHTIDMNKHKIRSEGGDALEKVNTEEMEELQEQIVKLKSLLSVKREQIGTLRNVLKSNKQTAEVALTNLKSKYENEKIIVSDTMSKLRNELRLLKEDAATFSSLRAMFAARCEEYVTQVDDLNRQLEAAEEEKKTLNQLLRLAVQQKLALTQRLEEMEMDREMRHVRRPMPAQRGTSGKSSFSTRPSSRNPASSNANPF
# testDescription: MST; MST: 1 nM Cy5-RNA in GF150 (25 mM HEPES pH 7.3, 150 mM KCl, 1 mM MgCl2, 0.1 mM Mg-ATP, 5 mM DTT, 10% glycerol) + 0.05% Tween-20, 15 min, room temperature; Egl-BicD conc. as 2:2 complex
# measurementContext: protein: recombinant;recombinant; tags: C-terminal TEV-ZZ (cleaved);; chain copies: 2;2; label: 5'-Cy5; hairpin with bulges
measurementType: Kd (nM)
One number for each entry, in nM.

# example entries with known answers
>>> df
                                     binder  measurementtype  measvalue
0  GLS (MST) (structured_RNA) RNA: AAAGUAAUUUUCGUGCUCUCAACAAUUGUCGCCGUCACAGAUUGUUGUUCGAGCCGAAUCUUACU               Kd         39
1  hSL2 (structured_RNA) RNA: AACUUCGUUGGCUUAGUUUCCUGGCUUAUAUCCUGGAAACCCGUCGACGAGG               Kd        603

Now look at this entry.
Problem: GET /values?readout=Kd&item= bcdSLV (MST) (structured_RNA) RNA: AAAAAUGUUUCUCUUGGGCGUAAUCUCAUACAAUGAUUACCCUUAAAGAUCGAACAUUU
Solution: 231
